protocolDetails: Half life in Beagle dog at 10 umol/kg, po
Format: ADME, organism-based, Canis lupus familiaris
testConditions: in vivo
assayMetric: half-life (h)
Give bare numbers, in h.

-- ask Note down half-life recorded for "CC(C)(N)C(=O)N[C@H](COCc1ccccc1)c1nnnn1CCOC(=O)NCCCCO"
-- reply 2.3

* * *

System: Canis familiaris
protocolDetails: Plasma clearance in Beagle dog at 10 umol/kg, po
Assay type: ADME, organism-based, Canis lupus familiaris
testConditions: in vivo
assayMetric: clearance (mL/min/kg)
Answers are plain numbers, in mL/min/kg.

-- ask Note down clearance recorded for "CC(C)(N)C(=O)N[C@H](COCc1ccccc1)c1nnnn1CCOC(=O)NCCCCO"
-- reply 21
